Molecular target: UniProtKB P21333
Test: FITC-NLX-based FLNA screening assay (inhibition of FITC-naloxone binding to Bn-VAKGL on streptavidin plates)
Settings: read-out: Percent Binding Inhibition, FLNA-binding compound 0.01 μM; 10 nM FITC-NLX
Measured inhibition at 0.01 µM values are reported for all entries that follow.
Please give a number only; it is taken to be in %.

Answered cases to consult:
compound: COc1ccc(S(=O)(=O)N2CCC3(CC2)OCCN3S(=O)(=O)c2ccc(C(C)=O)cc2)cc1 [Compound C0048]
unit descriptor: %
assay value: 28.5
//
compound: CC(C)c1ccc(S(=O)(=O)N2CCC3(CC2)OCCN3S(=O)(=O)c2ccc(C(C)C)cc2)cc1 [Compound C0007]
unit descriptor: %
assay value: 40.5
//
compound: CCN(CC)CC(O)COC1CC(C)CCC1C(C)C (stereo not shown) [Compound A0032]
unit descriptor: %
assay value: 43
//
compound: N#Cc1ccccc1S(=O)(=O)N1CCC2(CC1)OCCN2S(=O)(=O)c1ccccc1C#N [Compound C0004]
unit descriptor: %
assay value: 37.6
//
compound: CC(=O)c1ccc(S(=O)(=O)N2CC(CN(C)C)OC23CCNCC3)cc1 (stereo not shown) [Compound C0118M]
unit descriptor: %
assay value: 56.6

// lookup inhibition at 0.01 µM for Cc1cccc(S(=O)(=O)N2CCC3(CC2)OCCN3S(=O)(=O)c2cccc(C)c2)c1 [Compound C0014]
29.5

// lookup inhibition at 0.01 µM for COc1ccccc1C(=O)CC1c2c(cc3c(c2OC)OCO3)CC[N+]1(C)C (stereo not shown) [Compound B0025]
41.7
